assay_info: in vivo
Set-up: species or system Sprague-Dawley male rats
test_parameters: rat, 15 mg/kg, Concentration
Counter-ions that a name gives are not always drawn.
reported_property: concentration at 1.5 h (ng/mL)

# compound, numeric_result
data = [
    ("CCN(CC)CCNC(=O)c1cc(Cl)c(N)cc1OC [metoclopramide hydrochloride]", 1040),
]

----------
assay_info: in vivo
Parameters: species or system Sprague-Dawley male rats
test_parameters: rat, 15 mg/kg, Concentration
Counter-ions that a name gives are not always drawn.
reported_property: concentration at 4 h

# compound, reported_property, result
records = [
    ("CCN(CC)CCNC(=O)c1cc(Cl)c(N)cc1OC [metoclopramide hydrochloride]", "concentration at 4 h", "940 ng/mL"),
]
